Percent Effect values by entry
- system: Arginase-2, mitochondrial (Homo sapiens) (UniProt P78540)
- Sequence (P78540 whole entry): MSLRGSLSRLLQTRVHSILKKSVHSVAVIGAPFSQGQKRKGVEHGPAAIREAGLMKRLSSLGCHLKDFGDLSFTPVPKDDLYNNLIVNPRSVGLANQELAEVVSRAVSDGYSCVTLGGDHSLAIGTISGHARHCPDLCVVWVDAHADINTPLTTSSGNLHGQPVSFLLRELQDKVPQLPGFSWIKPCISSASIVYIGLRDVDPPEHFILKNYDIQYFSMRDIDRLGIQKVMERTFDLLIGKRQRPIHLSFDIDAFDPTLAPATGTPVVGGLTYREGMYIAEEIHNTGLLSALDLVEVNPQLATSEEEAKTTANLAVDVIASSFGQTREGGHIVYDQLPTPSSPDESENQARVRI
- assay comment: in vitro enzyme assay to detect the production of urea directly proportional to the activity of Arginase II
- Assay type: functional
- Design: scale not given: in the data most compounds retested in dose-response had high values
- conditions: 33.3 µM
readout type: Percent Effect (%)

> print(dat)
                                    compound  quantitative.result
 1                 C1CCCN(c2nc(C3CC3)ns2)CC1                -2.27
 2  O=C(Cc1cccnc1)N1CCC2(CC1)CCN(C1CCOCC1)C2                -2.76
 3  Cc1nc(CN(C)C2CCN(CC(=O)N3CCOCC3)C2)no1 (centres undefined)                -3.14
 4  O=C(CO)N1C[C@H]2CC[C@@H]1CN(C1Cc3ccccc3C1)C2                 1.74
 5    CCn1c(CN(C)C)nnc1C1CCN(c2ccnc(C)c2)CC1                 2.65
 6  COc1cccc(-c2noc(C3CCN(Cc4cn(C)nc4C)C3)n2)c1 (centres undefined)                -1.33
 7           COc1ccc(CNC(=O)C2(C#N)CCCC2)cc1                -2.65
 8  CCOCC(=O)N1C[C@@H](O)[C@H](N(C)Cc2ccc(OC)cc2)C1                0.232
 9  CCc1n[nH]c(C2CN(C(=O)CCc3cccs3)CCO2)n1 (centres undefined)                0.645
10  C=Cn1ncc(CN2C[C@@H]3CCCN3C[C@H]2CCSC)c1C                -1.16
11  CS(=O)(=O)c1ccc(CNC(=O)N2CCC(C(N)=O)C2)cc1 (centres undefined)                -3.04
12  COc1cccc2c1OCC(CNC(=O)CNC(N)=O)C2 (centres undefined)                 1.24
13  CCNC(=O)N1CCCC(c2noc(CC)n2)C1 (centres undefined)                 3.16
14  Cc1nc(C)n(CC2CCCN(c3ncnc4c3CCC4)C2)n1 (centres undefined)                -2.81
15  Cc1ccc2oc(C(=O)N3CCCC(n4nc(C)cc4C)C3)cc2n1 (centres undefined)                 1.23
16  Cc1cccc(CN2CCc3c(nc(N4CCC(C)CC4)[nH]c3=O)C2)n1               -0.696
17  CC(NC(=O)N(C)CCCOc1ccc(F)cc1)c1nncn1C (centres undefined)                 5.76
18     Cc1sc(NC(=O)CN(C)S(C)(=O)=O)c(C#N)c1C                  -29
19  NC(=O)C1CCN(C(=O)c2cccc(OCc3cscn3)c2)CC1                 5.33
20               O=C1CCCc2nccc(-c3ccccc3)c21                0.443
21  O=C(O)C(c1ccc2c(c1)OCO2)N1CCC(C(=O)N2CCCC2)CC1 (centres undefined)                -1.56
22   CCn1cnnc1CNC(=O)N1CCN(c2nc(C)c(C)s2)CC1                -4.27
23  Cc1nc2c(c(C)c1CC(=O)Nc1cccc(C#N)c1)c(=O)[nH]n2C                 -1.9
24     Cc1cc(CNc2cc(Cl)ccc2OCCS(C)(=O)=O)no1                -1.23
